TARGET: Alpha-2C adrenergic receptor (Homo sapiens) (UniProt P18825)
Sequence (P18825 whole entry, looked up): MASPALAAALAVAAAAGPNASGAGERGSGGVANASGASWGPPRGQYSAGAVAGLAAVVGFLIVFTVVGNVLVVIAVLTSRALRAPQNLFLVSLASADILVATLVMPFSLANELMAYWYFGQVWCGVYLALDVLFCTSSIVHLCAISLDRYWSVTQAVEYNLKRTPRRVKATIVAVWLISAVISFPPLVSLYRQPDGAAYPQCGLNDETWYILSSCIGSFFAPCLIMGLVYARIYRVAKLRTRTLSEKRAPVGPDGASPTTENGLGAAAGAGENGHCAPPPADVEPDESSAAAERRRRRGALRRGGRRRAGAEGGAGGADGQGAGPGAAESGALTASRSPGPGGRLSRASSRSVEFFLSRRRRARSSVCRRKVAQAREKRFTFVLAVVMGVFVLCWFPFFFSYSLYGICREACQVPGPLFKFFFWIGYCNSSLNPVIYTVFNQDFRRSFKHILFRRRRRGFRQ
EXPERIMENT DESCRIPTION: modulators of alpha2C/GIRK thallium flux, primary screen, cell-based, HEK293 alpha2C/GIRK1/2 (AID 624);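 also: slope of fluorescence ratio to pre-addition baseline per second over 15 to 24 s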
CONDITION INFO: thallium flux BTC fluorescence, at 10 µM, actives lie on both sides
OBSERVABLE: slope

Cc1c(C(=O)NCc2ccccn2)sc2nc(-c3ccc(F)cc3)cn12	0.00621
Cc1cc(Cl)c(S(=O)(=O)Nc2ccc3c(c2)OCCO3)cc1OCC(N)=O	0.00485
Cc1cc(C)n2cc(CSc3nnnn3-c3ccc(Cl)cc3)nc2n1	0.00492
CC(C)C(c1nnnn1C1CCCC1)N1CCCc2ccccc21 (stereo unspecified)	0.00444
O=C1CC(c2ccccc2)n2nc(NC(=O)c3ccccn3)nc2N1 (stereo unspecified)	0.00587
CCCOc1ccc(NC2=CC(=O)CC(C)(C)C2)cc1	0.00457
FC(F)(F)c1cccc(N2CCN(Cc3cccnc3)CC2)c1	0.00521
COc1ccc2[nH]c(=O)c(CN(C(=O)c3ccncc3)C(C)C)cc2c1	0.00387
Cn1nc(CC(=O)Nc2ccc(N3CCN(C(=O)OC(C)(C)C)CC3)cc2)c2ccccc2c1=O	0.00619
c1ccc(-c2nn3c(Cn4nnc5ccccc54)nnc3s2)nc1	0.0044
CN(C)C(=O)N1CCCC(C(=O)NCc2ccccc2)C1 (stereo unspecified)	0.00548

* * *

TARGET: Alpha-2C adrenergic receptor (Homo sapiens) (UniProt P18825)
EXPERIMENT DESCRIPTION: modulators of alpha2C/GIRK thallium flux, primary screen, cell-based, HEK293 alpha2C/GIRK1/2 (AID 624);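 also: slope of fluorescence ratio to pre-addition baseline per second over 15 to 24 s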
CONDITION INFO: thallium flux BTC fluorescence, at 10 µM, actives lie on both sides
OBSERVABLE: slope

O=C(C1CCCN(S(=O)(=O)c2ccc(Br)s2)C1)N1CCCCCC1 (stereo not given)	0.00305
O=C(CN(C1CCCCC1)S(=O)(=O)c1ccccc1)NCc1cccnc1	0.00649
O=C(NCc1nc2ccccc2[nH]1)c1ccc(Cl)c(S(=O)(=O)N2CCCC2)c1	0.00466
O=C(NC1CCN(Cc2nnnn2CCc2ccccc2)CC1)c1ccccc1F	0.00487
Cc1ccnc(SCCn2c(N3CCN(Cc4ccccc4)CC3)nc3c2c(=O)[nH]c(=O)n3C)n1	0.00641
COc1ccc2c(c1)cc(C(=O)O)n2C	0.00479
COc1ccc(OCCN2C(=O)NC(C)(c3ccc(C)cc3)C2=O)cc1 (stereo not given)	0.00469
CCOC(=O)N1CCC(n2c(=S)[nH]c3cc(OC)c(OC)cc3c2=O)CC1	0.00633
Clc1ccc(-n2nnnc2Sc2ncnc3sccc23)cc1	0.00502
Cc1ccc(-c2ccc(=O)n(CC(=O)NCCCN3CCCCC3C)n2)cc1 (stereo not given)	0.0058
COc1ccc(-c2ccc(-c3nnn(CC(C)=O)n3)cc2)cc1	0.00693
CCCOc1ccc(C2C(C(=O)OC)=CN(CCOC)C=C2C(=O)OC)cc1	0.00618
Cc1cccc(OCCNC(=O)c2ncn[nH]2)c1	0.00209
Cn1c(=O)c2c(nc(CN3CCOCC3)n2CC(O)CO)n(C)c1=O (stereo not given)	0.00587
CCC1CCCCN1CCCNC(=O)CC1Oc2ccc(C)cc2NC1=O (stereo not given)	0.00565
Cc1ccccc1NC(=O)C1CCCN(S(=O)(=O)c2cnc[nH]2)C1 (stereo not given)	0.0067
COC(=O)CCn1nnc(-c2cccs2)n1	0.00439
Cn1c(SCC(=O)N2CCOCC2)nnc1-c1cnccn1	0.00449
O=C1CC(N2CCN(C3CCc4ccccc4C3)CC2)C(=O)N1c1ccccc1 (stereo not given)	0.00552
COc1ccc(Cl)cc1NC(=O)CCN1CCN(c2ccccc2C)CC1	0.00554
Cc1cc2cc(CN(CCCN3CCOCC3)C(=O)NC3CCCCC3)c(=O)[nH]c2cc1C	0.00496
CCn1c(C(=O)N2CCC(C(=O)NCc3ccc4c(c3)OCO4)CC2)cc2sccc21	0.00644
Cc1ccc2[nH]c3c(c2c1)CCc1cn[nH]c1-3	0.00393
CC(=O)Nc1sc2c(c1CN1CCN(c3ccccn3)CC1)CCCC2	0.00435
CCOC(=O)c1ccc(COC(=O)c2cc3ccccc3oc2=O)o1	0.00426
COc1ccc(C(=O)NCC(=O)NC2=NCCS2)cc1	0.00756
Cc1ccc(-c2nnc(N3CCN(C(=O)CN4C(=O)c5ccccc5C4=O)CC3)c3ccccc23)cc1	0.00522
CCOC(=O)C(NC(C)=O)(Nc1ccc(S(=O)(=O)Nc2nccs2)cc1)C(F)(F)F (stereo not given)	0.00657
CN(C(=O)c1ccc2c(=O)n3c(nc2c1)CCCCC3)c1ccccc1	0.00528
CCCNS(=O)(=O)c1ccc(C(=O)NCC2CCCO2)cc1 (stereo not given)	0.00794
COc1ccc(-c2noc(-c3ccccc3C(=O)NCc3ccco3)n2)cc1	0.00789
CCOC(=O)C1C2C=CC3(CN(Cc4ccco4)C(=O)C13)O2 (stereo not given)	0.00537
COc1ccc(N2CCN(Cc3nc4ccccc4c(=O)[nH]3)CC2)cc1	0.00376
CN(Cc1ccccc1)C(=O)CNC(=O)Cn1cnc2ccccc2c1=O	0.00729
COc1cc2c(cc1NC(=O)COC(=O)Cn1cnc3ccccc31)oc1ccccc12	0.00618
C=CCSc1nnc(NC(=O)c2ccc(S(=O)(=O)NCC3CCCO3)cc2)s1 (stereo not given)	0.00603
O=C(c1ccco1)N1CCN(CCCCN2C(=O)c3ccccc3C2=O)CC1	0.00572
Cc1nnc(SCC(=O)Nc2nccs2)s1	0.00513
COC(=O)c1c(O)ccc(Oc2ccccc2)c1C(=O)OC	0.0066
Cc1nn(CC(O)Cn2c3c(c4ccccc42)CCN(C)C3=O)c(C)c1Br (stereo not given)	0.00532
CCc1ccc(CCC(=O)Nc2ccc(C)c(C)c2)o1	0.006
Cc1sc(NC(=O)CSc2nnc(COc3ccccc3)n2C)c(C#N)c1C	0.00494
Cc1csc(NC(=O)c2cc3c(s2)-c2ccccc2OC3)n1	0.00681
CSc1cccc(NC(=O)C2CCN(S(=O)(=O)c3ccc(F)cc3)CC2)c1	0.00752
COC(=O)Nc1ccc(NC(C)=O)cc1	0.00538
